- Tested on: Pseudomonas aeruginosa
- protocolDescription: Antibacterial activity against Pseudomonas aeruginosa ATCC 27853 after 24 hrs by twofold serial dilution method
- Assay type: functional
- details: ATCC 27853, 24 h
// assign Y if MIC falls strictly below 30 µg/mL, else N (ties count as N)

Please state whether MIC is below 30 µg/mL for "CN(C)c1ccc(/C=C(/C(=O)c2ccc(F)cc2F)n2cncn2)cc1" N

Please state whether MIC is below 30 µg/mL for "O=C(/C(=C/c1ccccc1)n1cncn1)c1ccc(F)cc1N1CCCCC1" Y

Please state whether MIC is below 30 µg/mL for "Cc1ccc(/C=C(/C(=O)c2ccc(F)cc2F)n2cncn2)cc1" Y

Please state whether MIC is below 30 µg/mL for "Cc1ccc(C(=O)/C(=C/c2ccccc2)n2cncn2)cc1C" N

Please state whether MIC is below 30 µg/mL for "O=C(/C(=C/c1ccccc1)n1cncn1)c1ccc(N2CCCC2)cc1N1CCCC1" N

Please state whether MIC is below 30 µg/mL for "O=C(/C(=C/c1ccc(Cl)cc1)n1cncn1)c1ccc(Cl)cc1" Y

Please state whether MIC is below 30 µg/mL for "O=C(/C(=C/c1ccccc1)n1cncn1)c1ccc(N2CCCCC2)cc1N1CCCCC1" N

Please state whether MIC is below 30 µg/mL for "CCn1cc(C(=O)O)c(=O)c2cc(F)c(N3CCNCC3)cc21" Y

Please state whether MIC is below 30 µg/mL for "O=C(N[C@H](CO)[C@H](O)c1ccc([N+](=O)[O-])cc1)C(Cl)Cl" N

Please state whether MIC is below 30 µg/mL for "O=C(/C(=C/c1ccccc1)n1cncn1)c1ccc(N2CCOCC2)cc1N1CCOCC1" N

Please state whether MIC is below 30 µg/mL for "COc1ccc(/C=C(/C(=O)c2ccc(F)cc2F)n2cncn2)cc1" Y

Please state whether MIC is below 30 µg/mL for "O=C(/C(=C/c1ccc(F)cc1)n1cncn1)c1ccc(F)cc1F" N

Please state whether MIC is below 30 µg/mL for "O=C(/C(=C/c1ccccc1)n1cncn1)c1ccc(F)cc1F" N

Please state whether MIC is below 30 µg/mL for "O=C(/C(=C/c1ccccc1)n1cncn1)c1ccc(F)cc1N1CCOCC1" N

Please state whether MIC is below 30 µg/mL for "O=C(/C(=C/c1ccccc1)n1cncn1)c1ccc(F)cc1N1CCCC1" Y

Please state whether MIC is below 30 µg/mL for "Cc1ccc(C(=O)/C(=C/c2ccccc2)n2cncn2)c(C)c1" N

Please state whether MIC is below 30 µg/mL for "O=C(/C(=C/c1ccc(Cl)cc1)n1cncn1)c1ccc(F)cc1F" N

Please state whether MIC is below 30 µg/mL for "O=C(/C(=C/c1ccccc1)n1cncn1)c1ccc(Cl)cc1" N
